Give measured pKd for each item. Keep answers brief.
biological target: T1, Recombinant human CD4 (R&D Systems, Cat. 10327-CD) (human, UniProt P01730 26-390, limits assumed); assay: BLI (Octet Red384), non-clonal supernatant on AMC sensor, 100 nM human CD4, 1:1 local fit;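 further: hybridoma antibodies captured from supernatant, single CD4 concentration as analyte, association and dissociation phases fitted together, giving single-point kinetic estimates per supernatant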
T1 construct: Bought soluble recombinant protein used as analyte at 100 nM; also called huCD4
Please treat pKd as minus the base-10 logarithm of the molar concentration.

Given the entry 75110_08A13A (antibody, V domains shown, Non-clonal AlivaMab Mouse Kappa hybridoma supernatant, captured by anti-mouse IgG Fc (human V regions, mouse Fc)) VH: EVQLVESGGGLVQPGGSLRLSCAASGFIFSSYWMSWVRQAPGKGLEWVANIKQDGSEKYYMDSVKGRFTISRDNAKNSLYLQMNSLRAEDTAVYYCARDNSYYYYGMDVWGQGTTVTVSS VL: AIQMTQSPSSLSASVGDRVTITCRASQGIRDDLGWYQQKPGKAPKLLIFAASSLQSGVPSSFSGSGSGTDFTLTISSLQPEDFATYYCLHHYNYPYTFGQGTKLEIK , report its measured pKd.
8.36

Given the entry 75110_01C18A (antibody, V domains shown, Non-clonal AlivaMab Mouse Kappa hybridoma supernatant, captured by anti-mouse IgG Fc (human V regions, mouse Fc)) VH: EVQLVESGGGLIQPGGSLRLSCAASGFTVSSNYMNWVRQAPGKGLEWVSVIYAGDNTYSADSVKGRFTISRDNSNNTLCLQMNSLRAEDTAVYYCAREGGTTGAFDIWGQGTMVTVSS VL: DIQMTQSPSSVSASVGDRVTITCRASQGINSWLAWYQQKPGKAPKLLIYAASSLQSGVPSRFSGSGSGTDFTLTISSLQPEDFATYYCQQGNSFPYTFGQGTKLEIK , report its measured pKd.
7.80
